assay.name: Intrinsic clearance in rat liver microsomes
Format: ADME
assay.setup: read-out: CLH
parameter: microsomal CLint (µL/min/mg)
Report the value in µL/min/mg with no unit label.

Consider the reported microsomal CLint for these compounds:
O=C(O)C1(Sc2ccnc3ccccc23)CCC1; 2.1
O=C(O)C1(Sc2ccnc3ccc(C(F)(F)F)cc23)CCC1; 4.7

Switching to the query record.
Incoming: Supply reported microsomal CLint belonging to this compound: O=C(O)C1(Sc2ccnc3ccc(Br)cc23)CCC1 [SHR-4640]
Outgoing: 4.4

* * *

assay.name: Half life in Sprague-Dawley rat at 3 mg/kg, iv by LC-MS/MS analysis
Format: ADME, organism-based
assay.setup: in vivo
parameter: half-life (h)
Report the value in h with no unit label.

Incoming: Supply reported half-life belonging to this compound: O=C(O)C1(Sc2ccnc3ccc(Br)cc23)CCC1
Outgoing: 4.9

* * *

assay.name: Cmax in Sprague-Dawley rat at 3 mg/kg, iv by LC-MS/MS analysis
Format: ADME, organism-based
Design: dose 3 mg/kg, route intravenous
assay.setup: in vivo
parameter: Cmax (µg/mL)
Report the value in µg/mL with no unit label.

Incoming: Supply reported Cmax belonging to this molecule: O=C(O)C1(Sc2ccnc3ccc(Br)cc23)CCC1
Outgoing: 99.7

* * *

assay.name: Half life in cynomolgus monkey at 10 mg/kg, po by LC-MS/MS analysis
Type: ADME, organism-based, Macaca fascicularis
assay.setup: in vivo
parameter: half-life (h)
Report the value in h with no unit label.

Incoming: Supply reported half-life belonging to this molecule: O=C(O)C1(Sc2ccnc3ccc(Br)cc23)CCC1 [SHR-4640]
Outgoing: 7.3

* * *

assay.name: AUC (0 to t) in cynomolgus monkey at 10 mg/kg, po by LC-MS/MS analysis
Assay type: ADME, organism-based, Macaca fascicularis
assay.setup: in vivo
parameter: AUC(0-t) (µg·h/mL)
Report the value in µg·h/mL with no unit label.

Incoming: Supply reported AUC(0-t) belonging to this molecule: O=C(O)C1(Sc2ccnc3ccc(Br)cc23)CCC1
Outgoing: 132

* * *

assay.name: Mean residence time in Sprague-Dawley rat at 3 mg/kg, iv by LC-MS/MS analysis
Format: ADME, organism-based
assay.setup: in vivo
parameter: MRT (h)
Report the value in h with no unit label.

Incoming: Supply reported MRT belonging to this compound: O=C(O)C1(Sc2ccnc3ccc(Br)cc23)CCC1
Outgoing: 6

* * *

assayed.target: Solute carrier family 22 member 12 (Homo sapiens)
assay.name: Inhibition of human URAT1 expressed in HEK293 cells assessed as [14C]uric acid uptake after 12 mins by scintillation counter
Assay type: cell-based
pIC50: −log10 of the molar value.
Catalogue of pIC50 values

Incoming: Supply reported pIC50 belonging to this compound: Nc1ccc2nccc(SC3(C(=O)O)CCC3)c2c1
Outgoing: 5.75

Incoming: Supply reported pIC50 belonging to this compound: O=C(O)C1(Sc2ccnc3ccc(Br)cc23)CCC1
Outgoing: 7.47

* * *

assay.name: Tmax in beagle dog at 5 mg/kg, po by LC-MS/MS analysis
Format: ADME, organism-based, Canis lupus familiaris
assay.setup: in vivo
parameter: Tmax (min)
Report the value in min with no unit label.

Incoming: Supply reported Tmax belonging to this compound: O=C(O)C1(Sc2ccnc3ccc(Br)cc23)CCC1
Outgoing: 30

* * *

Catalogue of pIC50 values
assayed.target: Solute carrier family 22 member 12 (Homo sapiens, UniProt Q96S37)
Sequence (Q96S37 whole entry): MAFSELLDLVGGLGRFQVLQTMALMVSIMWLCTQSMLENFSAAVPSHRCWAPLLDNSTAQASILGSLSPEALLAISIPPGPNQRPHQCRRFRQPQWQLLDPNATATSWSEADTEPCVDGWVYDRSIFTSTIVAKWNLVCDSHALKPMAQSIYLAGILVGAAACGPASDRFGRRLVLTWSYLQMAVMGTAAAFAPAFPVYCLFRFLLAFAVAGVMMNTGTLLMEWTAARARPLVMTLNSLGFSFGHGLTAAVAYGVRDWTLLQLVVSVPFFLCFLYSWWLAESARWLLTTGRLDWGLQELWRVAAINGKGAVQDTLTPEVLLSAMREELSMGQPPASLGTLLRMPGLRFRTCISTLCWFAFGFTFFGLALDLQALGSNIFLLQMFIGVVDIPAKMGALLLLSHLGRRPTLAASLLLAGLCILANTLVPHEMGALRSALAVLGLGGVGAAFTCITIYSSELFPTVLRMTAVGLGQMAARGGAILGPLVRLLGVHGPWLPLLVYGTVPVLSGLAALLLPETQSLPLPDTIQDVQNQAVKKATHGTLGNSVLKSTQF
assay.name: Inhibition of human URAT1 expressed in HEK293 cells assessed as [14C]uric acid uptake after 12 mins by scintillation counter
Conceptually, pIC50 converts a concentration in mol/L into minus its log10.

Consider the reported pIC50 for these molecules:
O=C(O)C1(Sc2ccnc3ccc(Br)cc23)CCCC1; 6.49
O=C(O)C1(Sc2ccnc3ccc(OCCO)cc23)CCC1; 5.72

Incoming: Supply reported pIC50 belonging to this molecule: O=C(O)C1(Sc2ccnc3ccncc23)CCC1
Outgoing: 5.71
